Measured on: recombinant human enteropeptidase (Homo sapiens (Human), UniProt P98073)
Sequence (P98073 whole entry): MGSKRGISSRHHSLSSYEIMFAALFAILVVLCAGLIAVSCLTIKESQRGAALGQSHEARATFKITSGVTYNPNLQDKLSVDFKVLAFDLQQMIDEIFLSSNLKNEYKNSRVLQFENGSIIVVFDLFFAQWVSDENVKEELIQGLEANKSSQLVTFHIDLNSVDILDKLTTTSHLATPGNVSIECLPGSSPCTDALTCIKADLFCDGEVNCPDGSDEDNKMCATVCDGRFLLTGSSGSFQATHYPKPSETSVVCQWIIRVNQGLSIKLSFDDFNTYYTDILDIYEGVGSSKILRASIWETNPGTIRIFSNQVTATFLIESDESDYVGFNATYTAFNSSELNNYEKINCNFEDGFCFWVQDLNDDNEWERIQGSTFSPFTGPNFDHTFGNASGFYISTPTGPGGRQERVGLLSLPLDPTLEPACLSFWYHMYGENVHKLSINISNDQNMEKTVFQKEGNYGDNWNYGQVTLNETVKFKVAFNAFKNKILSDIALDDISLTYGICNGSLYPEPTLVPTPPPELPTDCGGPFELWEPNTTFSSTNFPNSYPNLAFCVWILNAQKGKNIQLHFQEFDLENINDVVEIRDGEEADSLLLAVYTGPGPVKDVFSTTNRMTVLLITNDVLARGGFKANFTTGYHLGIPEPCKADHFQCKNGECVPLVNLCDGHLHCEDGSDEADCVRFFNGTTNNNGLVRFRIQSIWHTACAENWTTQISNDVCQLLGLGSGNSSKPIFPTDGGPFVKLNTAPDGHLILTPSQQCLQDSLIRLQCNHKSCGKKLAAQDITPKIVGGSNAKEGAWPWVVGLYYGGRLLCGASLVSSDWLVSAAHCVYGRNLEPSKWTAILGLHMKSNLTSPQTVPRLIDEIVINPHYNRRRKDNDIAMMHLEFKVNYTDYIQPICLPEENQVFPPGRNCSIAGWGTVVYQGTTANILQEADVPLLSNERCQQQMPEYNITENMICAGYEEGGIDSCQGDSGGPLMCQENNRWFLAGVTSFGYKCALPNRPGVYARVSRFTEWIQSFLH
Test: Measurement of enteropeptidase inhibitory activity
Run parameters: Dixon plot
Structures can show the parent of a compound that is named as a salt.
Reported endpoint: Ki (nM)

Observe how each entry below is paired with its result.
CC(Cc1ccc(C(=O)Oc2ccc(C(=N)N)cc2)o1)C(=O)N1C[C@H](O)C[C@@H]1C(=O)O (stereo partly shown) [Compound A-20]    2.54
CC(Cc1ccc(C(=O)Oc2ccc(C(=N)N)cc2)s1)C(=O)NCP(=O)(O)O (stereo not shown) [Compound B-40, trifluoroacetic acid salt]    2
CC(Cc1ccc(C(=O)Oc2ccc(C(=N)N)cc2F)s1)C(=O)N[C@@H](CO)C(=O)O (stereo partly shown) [Compound B-35]    0.4
C[C@@H](Cc1ccc(C(=O)Oc2ccc(C(=N)N)cc2)o1)C(=O)N[C@H](CC(=O)O)C(=O)O [Compound A-45, trifluoroacetic acid salt]    0.46

I = N=C(N)c1ccc(OC(=O)c2ccc(CCC(=O)N[C@@H](CC(=O)O)C(=O)O)o2)cc1 [Compound A-38]
II = C/C(=C\c1ccc(C(=O)Oc2ccc(C(=N)N)cc2)s1)C(=O)N(CCCO)CCS(=O)(=O)O [Compound B-7, trifluoroacetic acid salt]
III = CC(Cc1ccc(C(=O)Oc2ccc(C(=N)N)cc2Br)s1)C(=O)O (stereo not shown) [Compound B-16, trifluoroacetic acid salt]
Your job: order these 3 records by Ki, ascending. Use the labels to give the ranking in the order requested.
III, I, II
(III: 0.29 nM, I: 0.57 nM, II: 2.15 nM)
